Kindly state inhibition at 10 µM for each of the entries shown.
# Assay system: DHODH (Homo sapiens (Human), UniProt Q02127)
# Sequence (Q02127 whole entry): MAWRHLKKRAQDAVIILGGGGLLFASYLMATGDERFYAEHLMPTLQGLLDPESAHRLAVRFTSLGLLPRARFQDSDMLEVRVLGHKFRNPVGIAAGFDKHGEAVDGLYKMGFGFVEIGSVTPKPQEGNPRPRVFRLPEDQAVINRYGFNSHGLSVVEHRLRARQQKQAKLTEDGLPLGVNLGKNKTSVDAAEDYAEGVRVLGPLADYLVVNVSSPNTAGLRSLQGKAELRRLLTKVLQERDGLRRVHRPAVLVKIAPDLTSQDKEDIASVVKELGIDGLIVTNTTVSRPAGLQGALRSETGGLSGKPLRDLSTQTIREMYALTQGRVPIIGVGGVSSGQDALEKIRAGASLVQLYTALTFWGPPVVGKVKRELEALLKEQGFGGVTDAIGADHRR
# Protocol: DHODH activity assay (coupled enzyme assay, DCIP reduction, absorbance at 610 nm)
# Assay type: biochemical
# Stated conditions: compound at 10 uM; read-out: inh @ 10 uM hDHODH (%)
One number for each entry, in %.

> print(dat)
                         compound.structure  experimental.result
1  Cc1cc(C(=O)O)c2[nH]c(-c3c(F)c(F)c(-c4ccc(O)cc4)c(F)c3F)nc2c1                 98.4

Hey, can you go through the list below and give me inhibition at 10 µM for every item?
1. Nc1nnc(-c2cccc3[nH]c(-c4ccc(-c5ccccc5)cc4)nc23)s1
2. Cc1cc(C(=O)O)c2nc(-c3c(F)cc(-c4ccccc4)cc3F)[nH]c2c1
3. O=C(O)c1cccc2[nH]c(-c3c(F)c(F)c(-c4ccccc4)c(F)c3F)nc12
4. O=C(O)c1cccc2[nH]c(-c3ccc(N4CCCCCC4=O)cc3)nc12
5. Cc1cc(C(=O)O)c2nc(-c3ccc(-c4ccccc4)cc3)n(CCO)c2c1

output:
53
100
97.3
17.9
78.8

Hi there! I need inhibition at 10 µM for each item below, if you can.
1. Cc1cc(C(=O)O)c2[nH]c(-c3ccc(-c4ccc(CN(C)C)cc4)cc3)nc2c1
2. O=C(O)c1cccc2nc(-c3ccc(-c4ccccc4F)cc3F)[nH]c12
3. Cc1cc(C(=O)O)c2nc(-c3ccc(-c4ccc(C(=O)NC5CCNCC5)cc4)cc3)[nH]c2c1
4. O=C(O)c1cccc2[nH]c(-c3ccc(Nc4ccccc4)cc3)nc12
5. CC(=O)c1cccc2[nH]c(-c3ccc(-c4ccccc4)cc3)nc12
6. Cc1cc(C(=O)O)c2nc(C#Cc3ccccc3)[nH]c2c1
7. Cc1cc(C(=O)O)c2[nH]c(-c3ccc(-c4ccccn4)cc3)nc2c1

output:
1. 43.3
2. 86.7
3. 59.7
4. 33.2
5. 12.5
6. 59.5
7. 56.6

For the 2 compounds below, give their inhibition at 10 µM values.
1. Cc1cc(C(=O)O)c2[nH]c(-c3c[nH]c4ccccc34)nc2c1
2. Cc1cc(C#N)c2nc(-c3c(F)c(F)c(-c4ccccc4)c(F)c3F)[nH]c2c1

output:
[7.1, 87]
